Molecular target: T1, human CD94 (human, UniProt Q13241 1-179)
T1 construct: whole, on cells; Endogenous CD94 on primary cells (healthy-donor PBMC NK cells, CLPD-NK and T-LGLL patient cells), where it pairs with NKG2A or NKG2C; also called KLRD1; Natural killer cells antigen CD94
T1 sequence (looked up): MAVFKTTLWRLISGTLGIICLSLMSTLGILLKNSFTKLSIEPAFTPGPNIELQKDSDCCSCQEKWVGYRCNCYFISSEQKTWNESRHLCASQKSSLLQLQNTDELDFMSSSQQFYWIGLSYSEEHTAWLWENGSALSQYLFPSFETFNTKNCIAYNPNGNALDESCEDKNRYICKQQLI
Experiment: flow cytometry titration (100 nM to 0.046 nM) on healthy-donor PBMCs, CD3-CD56bright NK cells; column 'Affinity on human NK cells (nM)'
measurement_name: EC50 (nM)

[
  {
    "binder": "anti-CD94 antibody ATX-124 (antibody, human IgG1, V domains shown) VH: QVQLVQSGAEVKKPGASVKVSCKASGYTFTSYGISWVRQAPGQGLEWMGWISAYNGNTNYAQKLQGRVTMTTDTSTSTAYMEVRSLRSDDTAVYYCARDRGRFGELFFDHWGQGTLVTVSS VL: DIVMTQSPSSVSASVGDRVTITCRASQGISNYLAWYQQKPGKAPKLLIYAASSLQSGVPSRFSGSGSGTDFTLTISSLQPEDFATYYCLQHNSYPFTFGPGTKVDIK",
    "result": 10
  },
  {
    "binder": "anti-CD94 antibody ATX-123 (antibody, human IgG1, V domains shown) VH: QVQLVQSGAEVKKPGASVKVSCKASGYTFTSYGISWVRQAPGQGLEWMGWISAYNGNTNYAQKFQGRVTMTTDTSTNTAYMELRSLRSDDTAVYYCARDRGRFGELLSDYWGQGTLVTVSS VL: DIVMTQSPSSVSASVGDRVTITCRASQGISNYLAWYQQKPGKAPKLLIYAASSLQSGVPSRFSGSGSGTDFTLTISSLQPEDFATYYCLQHNSYPFTFGPGTKVDIK",
    "result": 1.12
  },
  {
    "binder": "anti-CD94 antibody ATX-125 (antibody, human IgG1, V domains shown) VH: QVQLQQSGPGLVKPSETLSLTCTVSGGSISSIIYYWGWIRQPPGKGLEWIGSIYYSGSTYYNPSLKSRVTISVDTSKNQFSLNLSSVTAADTAVYYCARLPLTGEFAFDIWGQGTMVTVSS VL: EIVLTQSPATLSLSPGERATLSCRASQSVSTYLAWFQQKPGQAPRLLIYGASSRATGIPDRFSGSGSGTDFTLTISRLEPEDFAVYYCQQYGSSPITFGQGTRLEIK",
    "result": 4.63
  }
]

Origin of the recorded values: patent US20220127365A1
